# measured-target: T1, human BCMA with a His tag (ACROBiosystems, Catalog No.: BCA-H522y) (human)
# T1 construct: Bought His-tagged recombinant protein; also called huBCMA-His; Recombinant human BCMA
# T1 chain: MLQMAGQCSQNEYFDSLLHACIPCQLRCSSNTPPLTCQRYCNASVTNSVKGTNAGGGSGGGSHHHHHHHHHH
# experiment-description: SPR, Biacore T200
property-measured: kon (M⁻¹ s⁻¹)
Give the value in M⁻¹ s⁻¹ but do not write M⁻¹ s⁻¹ after it.

# kon of SCT-Aa02(h/h) (antibody, V domains shown, Full IgG format, chimeric: human IgG1 heavy chain constant region, human kappa light chain constant region) VH: EVKLLQSGGGLVQPGGSLKLSCAASGIDFSRYWMSWVRRAPGKGLEWIGEINPDSSTINSAPSLEDKFIISRDNAKNTLYLQMSKVRSEDTALYYCASLYYDYERDYAMDYWGQGASVTVSS VL: DIVMTQSQKFMSTSVGDRVSVTCKASQNVGTNVAWYQQKPGQSPKALIYSASYRFSGVPDRFTGSGSGTDFTLTISNVQSEDLAEYFCQQYHSYPFTFGGGTKLEIK = 306000

# kon of SCT-Aa14(m/m) (antibody, V domains shown, Full IgG format: mouse IgG1 heavy chain constant region, mouse kappa light chain constant region) VH: QVQLQQSDAELVKPGASVKISCKVSSYTFTDHTIHWMKQRPEQGLEWIGYIFPRDGSTKYNEKFKGKATLTADKSSSTAYMQLNSLTSEDSAVYFCARWDYEGFDYWGQGTTLTVSS VL: DIVMTQSPATLSVTPGDRVSLSCRASQNISDYLHWYQQKSHESPRLLIKYASQSISGIPSRFSGSGSGSDFTLSINSVEPEDVGVYYCQNGHSFPPTFGSGTKLEIK = 1.85e+06

# evaluate next
# kon of SCT-Aa01(m/m) (antibody, V domains shown, Full IgG format: mouse IgG1 heavy chain constant region, mouse kappa light chain constant region) VH: DVQLQESGPGLVKPSQSLSLTCSVTGYSITSGYYWNWIRQFPGNKLEWMGYIRYDGSNNYNPSLKNRISITRDTSKNQFFLKLNSVTTEDTATYYCAPYDYDYAMDFWGQGTSVTVSS VL: DIQMTQSPASLSASVGETVTITCRASGNIHNYLAWYQQKQGKSPQLLVYNAKTLAHGVPSRFSGSGSGTQYSLKITSLQPEDFGTYYCQHFWSTPFTFGSGTKLEIK = 255000
